Target sequence: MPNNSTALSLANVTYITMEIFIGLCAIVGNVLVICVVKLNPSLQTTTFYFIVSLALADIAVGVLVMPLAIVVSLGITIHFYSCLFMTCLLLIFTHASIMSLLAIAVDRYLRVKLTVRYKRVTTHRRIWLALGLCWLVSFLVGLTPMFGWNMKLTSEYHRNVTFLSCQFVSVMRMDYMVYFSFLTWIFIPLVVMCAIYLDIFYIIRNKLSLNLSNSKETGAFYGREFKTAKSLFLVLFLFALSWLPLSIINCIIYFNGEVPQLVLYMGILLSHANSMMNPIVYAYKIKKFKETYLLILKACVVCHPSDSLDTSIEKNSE
measured.parameter: AC50

Consider the following illustrative entries.
INSERT INTO assay_data (compound, reported) VALUES
  ('COC(=O)C1=C(C)NC(C)=C(C(=O)OC(C)(C)CN(C)CCC(c2ccccc2)c2ccccc2)C1c1cccc([N+](=O)[O-])c1 (stereo not given) [LERCANIDIPINE]', '8.8 µM'),
  ('Cc1c(C(=O)NN2CCCCC2)nn(-c2ccc(Cl)cc2Cl)c1-c1ccc(Cl)cc1 [RIMONABANT]', '3.76 µM'),
  ('CCCc1nc(C(C)(C)O)c(C(=O)OCc2oc(=O)oc2C)n1Cc1ccc(-c2ccccc2-c2nnn[nH]2)cc1 [OLMESARTAN MEDOXOMIL]', '> 10 µM'),
  ('COc1ccc(CCN(C)CCCC(C#N)(c2cc(OC)c(OC)c(OC)c2)C(C)C)cc1OC (stereo not given) [GALLOPAMIL]', '> 30 µM'),
  ('C[C@H](CSC(=O)c1ccccc1)C(=O)N1C[C@@H](Sc2ccccc2)C[C@H]1C(=O)O [ZOFENOPRIL]', '> 10 µM'),
  ('CCCCCCOc1ccccc1C(N)=O [EXALAMIDE]', '> 30 µM'),
  ('Cc1cc(O)c(C(=O)N[C@@H](C(=O)N[C@@H]2C(=O)N3C(C(=O)O)=C(CSc4nnnn4C)CS[C@H]23)c2ccc(O)cc2)cn1 [CEFPIRAMIDE]', '> 30 µM'),
  ('Cc1ccc(-c2cc(C(F)(F)F)nn2-c2ccc(S(N)(=O)=O)cc2)cc1 [CELECOXIB]', '9.14 µM');

Please indicate AC50 recorded for NCC(=O)CCC(=O)O [AMINOLEVULINIC ACID]
> 30 µM

Please indicate AC50 recorded for CN1CCN(CC/C=C2/c3ccccc3Sc3ccc(S(=O)(=O)N(C)C)cc32)CC1 [THIOTHIXENE]
> 30 µM

----------
Values of AC50 reported for Equilibrative nucleoside transporter 1 (Homo sapiens, UniProt Q99808) appear below.

Consider the following illustrative entries.
INSERT INTO measurements (compound, target_under_test, measured_parameter, reported) VALUES
  ('CC[C@H]1[C@@H](O)[C@@H]2[C@H](CC[C@]3(C)[C@@H]([C@H](C)CCC(=O)O)CC[C@@H]23)[C@@]2(C)CC[C@@H](O)C[C@@H]12', 'Equilibrative nucleoside transporter 1 (Homo sapiens, UniProt Q99808)', 'AC50', '> 30 µM'),
  ('CC(C)=CCC/C(C)=C/C=C/C(C)=C/C=C/C(C)=C/C=C/C=C(C)/C=C/C=C(C)/C=C/C=C(\C)CCC=C(C)C', 'Equilibrative nucleoside transporter 1 (Homo sapiens, UniProt Q99808)', 'AC50', '> 30 µM'),
  ('CC(=O)O[C@H]1C[C@@H]2CC[C@@H]3[C@H](CC[C@@]4(C)[C@H]3C[C@H]([N+]3(C)CCCCC3)[C@@H]4OC(C)=O)[C@@]2(C)C[C@@H]1N1CCCCC1', 'Equilibrative nucleoside transporter 1 (Homo sapiens, UniProt Q99808)', 'AC50', '> 30 µM'),
  ('CC(C)C[C@H]1C(=O)N2CCC[C@H]2[C@]2(O)O[C@](NC(=O)[C@@H]3C=C4c5cccc6[nH]c(Br)c(c56)C[C@H]4N(C)C3)(C(C)C)C(=O)N12', 'Equilibrative nucleoside transporter 1 (Homo sapiens, UniProt Q99808)', 'AC50', '13 µM'),
  ('C[C@]1(O)CC[C@H]2[C@@H]3CCC4=CC(=O)CC[C@]4(C)[C@@]3(F)[C@@H](O)C[C@@]21C', 'Equilibrative nucleoside transporter 1 (Homo sapiens, UniProt Q99808)', 'AC50', '> 10 µM'),
  ('C#C[C@]1(O)CC[C@H]2[C@@H]3CCC4=Cc5oncc5C[C@]4(C)[C@H]3CC[C@@]21C', 'Equilibrative nucleoside transporter 1 (Homo sapiens, UniProt Q99808)', 'AC50', '> 10 µM'),
  ('COc1ccc(CC(C)(C)NC[C@H](O)c2cc(O)cc3c2OCC(=O)N3)cc1', 'Equilibrative nucleoside transporter 1 (Homo sapiens, UniProt Q99808)', 'AC50', '> 30 µM'),
  ('CC[C@@H](C(N)=O)N1CCCC1=O', 'Equilibrative nucleoside transporter 1 (Homo sapiens, UniProt Q99808)', 'AC50', '> 30 µM'),
  ('O=P1(NCCCl)OCCCN1CCCl (centres undefined) [IFOSFAMIDE]', 'Equilibrative nucleoside transporter 1 (Homo sapiens, UniProt Q99808)', 'AC50', '> 30 µM'),
  ('CCOC(=O)[C@H](CCc1ccccc1)N[C@@H](C)C(=O)N1C(=O)N(C)C[C@H]1C(=O)O', 'Equilibrative nucleoside transporter 1 (Homo sapiens, UniProt Q99808)', 'AC50', '> 30 µM');

State recorded AC50 with Equilibrative nucleoside transporter 1 (Homo sapiens, UniProt Q99808), entry O=C(NCCN1CCOCC1)c1ccc(Cl)cc1 [MOCLOBEMIDE] , no comment.
Sequence (Q99808 whole entry): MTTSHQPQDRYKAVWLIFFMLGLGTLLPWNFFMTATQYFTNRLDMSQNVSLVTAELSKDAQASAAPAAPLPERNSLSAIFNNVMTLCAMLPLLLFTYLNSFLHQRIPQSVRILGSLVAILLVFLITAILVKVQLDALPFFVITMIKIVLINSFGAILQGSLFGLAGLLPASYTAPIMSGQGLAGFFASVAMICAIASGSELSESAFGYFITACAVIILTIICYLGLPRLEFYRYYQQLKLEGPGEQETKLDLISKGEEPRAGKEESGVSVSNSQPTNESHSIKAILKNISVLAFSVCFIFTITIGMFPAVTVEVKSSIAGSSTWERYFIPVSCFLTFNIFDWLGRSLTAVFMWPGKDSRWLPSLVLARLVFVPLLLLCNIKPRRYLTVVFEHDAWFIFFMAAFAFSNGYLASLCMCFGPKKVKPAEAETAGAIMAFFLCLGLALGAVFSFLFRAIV
> 10 µM

State recorded AC50 with Equilibrative nucleoside transporter 1 (Homo sapiens, UniProt Q99808), entry `CS(=O)(=O)c1ccc(C2=C(c3ccccc3)C(=O)OC2)cc1` , no comment.
> 30 µM

State recorded AC50 with Equilibrative nucleoside transporter 1 (Homo sapiens, UniProt Q99808), entry `Nc1nc(/C(=C/CC(=O)O)C(=O)N[C@@H]2C(=O)N3C(C(=O)O)=CCS[C@H]23)cs1` , no comment.
> 30 µM

State recorded AC50 with Equilibrative nucleoside transporter 1 (Homo sapiens, UniProt Q99808), entry CC1(C)NC(=O)N(c2ccc([N+](=O)[O-])c(C(F)(F)F)c2)C1=O [NILUTAMIDE] , no comment.
> 30 µM

State recorded AC50 with Equilibrative nucleoside transporter 1 (Homo sapiens, UniProt Q99808), entry `Brc1c(NC2=NCCN2)ccc2nccnc12` , no comment.
> 30 µM

State recorded AC50 with Equilibrative nucleoside transporter 1 (Homo sapiens, UniProt Q99808), entry `CC(C)C(=O)c1c(C(C)C)nn2ccccc12` , no comment.
> 30 µM

State recorded AC50 with Equilibrative nucleoside transporter 1 (Homo sapiens, UniProt Q99808), entry COc1ccccc1OCC(O)CN1CCN(CC(=O)Nc2c(C)cccc2C)CC1 (centres undefined) , no comment.
> 30 µM

State recorded AC50 with Equilibrative nucleoside transporter 1 (Homo sapiens, UniProt Q99808), entry CCCC(C)C1(CC)C(=O)NC(=O)NC1=O (centres undefined) , no comment.
> 10 µM

State recorded AC50 with Equilibrative nucleoside transporter 1 (Homo sapiens, UniProt Q99808), entry `CC(=O)Nc1ccc(O)cc1` , no comment.
> 30 µM
